# Test system: Candida albicans
# assaySummary: Antimicrobial activity against Candida albicans 855-653 measured after 14 days by two-fold serial dilution method
# Type: functional
# conditionNotes: 855-653, 336 h
metricName: MIC

Q. Return the recorded MIC value; entry: CCCCCCCCCCCC[N+](C)(C)CCCNC(c1cc(C(C)(C)C)c(O)c(C(C)(C)C)c1)P(=O)(OCC)OCC (stereo not drawn)
A. 44.3 µM

Q. Return the recorded MIC value; entry: `CC[N+](C)(C)CCCNC(=O)CCc1cc(C(C)(C)C)c(O)c(C(C)(C)C)c1`
A. 265 µM

Q. Return the recorded MIC value; entry: `CC[N+](C)(C)CCNC(=O)CCc1cc(C(C)(C)C)c(O)c(C(C)(C)C)c1`
A. 68.5 µM

Q. Return the recorded MIC value; entry: `CCCCCCCCCCCCCCCC[N+](C)(C)CCNC(=O)CCc1cc(C(C)(C)C)c(O)c(C(C)(C)C)c1`
A. 383 µM

Q. Return the recorded MIC value; entry: `CCCCCCCCCCCC[N+](C)(C)CCNC(=O)CCc1cc(C(C)(C)C)c(O)c(C(C)(C)C)c1`
A. 419 µM

Q. Return the recorded MIC value; entry: `CCCCCCCCCC[N+](C)(C)CCCNC(=O)CCc1cc(C(C)(C)C)c(O)c(C(C)(C)C)c1`
A. 0.9 µM

Q. Return the recorded MIC value; entry: CCOP(=O)(OCC)C(NCCC[N+](C)(C)Cc1ccccc1)c1cc(C(C)(C)C)c(O)c(C(C)(C)C)c1 (stereo not drawn)
A. 199 µM

Q. Return the recorded MIC value; entry: `CCCCCCCC[N+](C)(C)CCCNC(=O)CCc1cc(C(C)(C)C)c(O)c(C(C)(C)C)c1`
A. 28 µM

###

# Tested on: Candida albicans
# assaySummary: Antimicrobial activity against Candida albicans 855-653 measured after 14 days by two-fold serial dilution method
# Type: functional
# conditionNotes: 855-653, 336 h
I'd appreciate it if you could supply MIC values for the items below.
// note: answer is a bare numeric in µM

Q. Return the recorded MIC value; entry: CCCCCCCCCCCC[N+](C)(C)CCNC(c1cc(C(C)(C)C)c(O)c(C(C)(C)C)c1)P(=O)(OCC)OCC (centres undefined)
A. 45.2

Q. Return the recorded MIC value; entry: CCCCCCCCCC[N+](C)(C)CCNC(c1cc(C(C)(C)C)c(O)c(C(C)(C)C)c1)P(=O)(OCC)OCC.[Br-] (centres undefined)
A. 47

Q. Return the recorded MIC value; entry: CC[N+](C)(C)CCNC(c1cc(C(C)(C)C)c(O)c(C(C)(C)C)c1)P(=O)(OC(C)C)OC(C)C (centres undefined)
A. 432

Q. Return the recorded MIC value; entry: CCCCCCCCCC[N+](C)(C)CCNC(c1cc(C(C)(C)C)c(O)c(C(C)(C)C)c1)P(=O)(OC(C)C)OC(C)C.[Br-] (centres undefined)
A. 11.3

###

I'd appreciate it if you could supply MIC values for the items below.
# Tested on: Bacillus cereus
# assaySummary: Antimicrobial activity against Bacillus cereus ATCC 8035 measured every 24 hrs for 5 days by two-fold serial dilution method
# Type: functional
// note: answer is a bare numeric in µM

Q. Return the recorded MIC value; entry: CCOP(=O)(OCC)C(NCC[N+](C)(C)CC)c1cc(C(C)(C)C)c(O)c(C(C)(C)C)c1 (configuration not stated)
A. 56.8

Q. Return the recorded MIC value; entry: CCCCCCCCCC[N+](C)(C)CCNC(c1cc(C(C)(C)C)c(O)c(C(C)(C)C)c1)P(=O)(OC(C)C)OC(C)C.[Br-] (configuration not stated)
A. 5.6

Q. Return the recorded MIC value; entry: CCOP(=O)(OCC)C(NCCC[N+](C)(C)CC)c1cc(C(C)(C)C)c(O)c(C(C)(C)C)c1 (configuration not stated)
A. 221

Q. Return the recorded MIC value; entry: CCOP(=O)(OCC)C(NCC[N+](C)(C)Cc1ccccc1)c1cc(C(C)(C)C)c(O)c(C(C)(C)C)c1 (configuration not stated)
A. 6.4

Q. Return the recorded MIC value; entry: CCOP(=O)(OCC)C(NCCC[N+](C)(C)Cc1ccccc1)c1cc(C(C)(C)C)c(O)c(C(C)(C)C)c1 (configuration not stated)
A. 24.8

Q. Return the recorded MIC value; entry: `CCCCCCCCCCCCCCCC[N+](C)(C)CCNC(=O)CCc1cc(C(C)(C)C)c(O)c(C(C)(C)C)c1`
A. 383

Q. Return the recorded MIC value; entry: CCn1cc(C(=O)O)c(=O)c2cc(F)c(N3CCNCC3)cc21 [NORFLOXACIN]
A. 25

Q. Return the recorded MIC value; entry: CCCCCCCCCCCC[N+](C)(C)CCCNC(c1cc(C(C)(C)C)c(O)c(C(C)(C)C)c1)P(=O)(OCC)OCC (configuration not stated)
A. 177

Q. Return the recorded MIC value; entry: `CCCCCCCC[N+](C)(C)CCNC(=O)CCc1cc(C(C)(C)C)c(O)c(C(C)(C)C)c1`
A. 58

Q. Return the recorded MIC value; entry: CCCCCCCCCCCC[N+](C)(C)CCNC(c1cc(C(C)(C)C)c(O)c(C(C)(C)C)c1)P(=O)(OCC)OCC (configuration not stated)
A. 361

Q. Return the recorded MIC value; entry: O=C(N[C@H](CO)[C@H](O)c1ccc([N+](=O)[O-])cc1)C(Cl)Cl [CHLORAMPHENICOL]
A. 193

Q. Return the recorded MIC value; entry: CC(C)OP(=O)(OC(C)C)C(NCCC[N+](C)(C)Cc1ccccc1)c1cc(C(C)(C)C)c(O)c(C(C)(C)C)c1 (configuration not stated)
A. 95.3

Q. Return the recorded MIC value; entry: CCCCCCCCCC[N+](C)(C)CCNC(c1cc(C(C)(C)C)c(O)c(C(C)(C)C)c1)P(=O)(OCC)OCC.[Br-] (configuration not stated)
A. 2.9

Q. Return the recorded MIC value; entry: `CCCCCCCCCCCC[N+](C)(C)CCNC(=O)CCc1cc(C(C)(C)C)c(O)c(C(C)(C)C)c1`
A. 419

Q. Return the recorded MIC value; entry: CC(C)OP(=O)(OC(C)C)C(NCC[N+](C)(C)Cc1ccccc1)c1cc(C(C)(C)C)c(O)c(C(C)(C)C)c1 (configuration not stated)
A. 48.8

Q. Return the recorded MIC value; entry: `CCCCCCCCCC[N+](C)(C)CCNC(=O)CCc1cc(C(C)(C)C)c(O)c(C(C)(C)C)c1`
A. 6.8

Q. Return the recorded MIC value; entry: `CCCCCCCCCCCC[N+](C)(C)CCCNC(=O)CCc1cc(C(C)(C)C)c(O)c(C(C)(C)C)c1`
A. 206
